# Tested on: recombinant full-length PHGDH (Homo sapiens)
# Construct: encoding for the full-length enzyme (aa 1-533); His6 (N, cleaved yes); TEV protease recognition site (N, cleaved yes); made in house; host or cells: E. coli Rosetta (DE3)
# Sequence (O43175 whole entry, the tested form may be a part): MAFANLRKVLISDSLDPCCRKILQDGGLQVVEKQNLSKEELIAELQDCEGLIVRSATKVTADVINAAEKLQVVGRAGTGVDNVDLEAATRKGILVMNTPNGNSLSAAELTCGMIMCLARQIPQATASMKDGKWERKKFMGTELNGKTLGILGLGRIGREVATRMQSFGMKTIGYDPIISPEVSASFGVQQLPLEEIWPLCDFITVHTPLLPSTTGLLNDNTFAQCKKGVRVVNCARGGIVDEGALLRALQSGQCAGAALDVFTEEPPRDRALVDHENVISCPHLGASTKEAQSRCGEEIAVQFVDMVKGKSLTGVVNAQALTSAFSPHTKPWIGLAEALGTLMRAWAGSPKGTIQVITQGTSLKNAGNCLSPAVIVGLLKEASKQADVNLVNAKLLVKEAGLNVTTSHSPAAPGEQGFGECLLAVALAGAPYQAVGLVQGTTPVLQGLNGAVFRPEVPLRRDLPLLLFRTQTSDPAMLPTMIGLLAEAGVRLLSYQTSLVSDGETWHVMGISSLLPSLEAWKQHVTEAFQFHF
# Assay method text: Differential scanning fluorimetry (DSF) thermal shift assay, fragment screen
# Type: binding
# Reported conditions: repurchased fragment; DSF
Mark true for reported ΔTm (repurchased fragment) of -0.1 °C or greater; mark false for anything smaller.

Compound	Qualitative label
Oc1noc2ccccc12 [Fragment 16, 3-Hydroxy benzisoxazole]	true
Cc1ccc(F)cc1C(=O)O [Fragment 14, 5-Fluoro-2-methylbenzoic acid]	true
Oc1ccnc(O)c1 [Fragment 13, 2,4.Dihydroxy pyridine]	true
Cc1cccc2cc[nH]c12 [Fragment 6, 7-Methyl-1H-indole]	true
COc1ccc(NC(C)=O)cc1Cl [Fragment 15, N-(3-chloro-4-methoxyphenyl) acetamide]	false
Cn1ccc2cc(N)ccc21 [Fragment 9, 5-Amino-1-methyl-1H-indole]	true
Cc1cncc(Oc2cccc(N)c2)n1 [Fragment 11, 3-(6-Methylpyrazin-2-yl)oxyaniline]	false
Cc1cncc(Oc2cccc(CO)c2)n1 [Fragment 7]	false
Cn1nc(-c2ccccc2)cc1N [Fragment 3, 1-Methyl-3-phenyl-1H-pyrazol-5-amine]	false
c1ccc(Cn2ccnc2)cc1 [Fragment 12, 1-Benzylimidazole]	false
Oc1ncnc2cccc(F)c12 [Fragment 4, 5-Fluoro-4-hydroxy quinazoline]	true
O=C1COc2cc(O)ccc21 [Fragment 8]	true
Nc1cccc(-c2cnco2)c1 [Fragment 10, 3-(1,3-oxazol-5-yl)aniline]	false

Where these numbers come from: paper PMC5862567
